Could you please report measured viability at 48 h, 10 µM for the items listed next?
methodNotes: Cytotoxicity screening at 10 µM (MTT)
Format: cell-based, Cercopithecus aethiops
experimentalContext: Cercopithecus aethiops, Vero cells, read-out: Cell line (viability %) Vero
Answer shape: numeric part, then the unit.

Any idea what its viability at 48 h, 10 µM is? The compound is c1ccc(Cn2c[n+](Cc3ccccc3)c(-c3ccccc3)c2-c2ccccc2)cc1 [9b[PF6]] 6.7%

Try COc1cccc(Cn2c(-c3ccccc3)c(-c3ccccc3)n(Cc3ccccc3)c2=S)c1 [Compound 10d] next. 95.8%

Now the same for Cc1c(C)[n+](Cc2ccccc2)cn1Cc1ccccc1 [Compound 1a, lepidiline A, reference compound] 90.5%

And then COc1cccc(Cn2c[n+](Cc3ccccc3)c(-c3ccccc3)c2-c2ccccc2)c1 [9c[PF6]] , what is it? 6.6%

Same lookup for c1c[n+](OC23CC4CC(CC(C4)C2)C3)cn1OC12CC3CC(CC(C3)C1)C2 [Compound 2b] , please. 15.2%

Now this one: COc1cccc(Cn2c[n+](Cc3ccccc3)c(C)c2C)c1 [Compound 1c, lepidiline C, reference compound] 90.7%

And for COc1cccc(Cn2c(C)c(C)n(Cc3ccccc3)c2=S)c1 [Compound 10b] ? 29.1%

Repeat with c1c[n+](C23CC4CC(CC(C4)C2)C3)cn1C12CC3CC(CC(C3)C1)C2 [Compound 2a, 1,3-diadamantyl imidazolium bromide, reference compound] 7.9%

Queued: S=c1n(Cc2ccccc2)c(-c2ccccc2)c(-c2ccccc2)n1Cc1ccccc1 [Compound 10c] 11.4%

Follow-up item: Cc1c(C)n(Cc2ccccc2)c(=S)n1Cc1ccccc1 [Compound 10a] 83.8%

* * *

Structures can show the parent of a compound that is named as a salt.
measuredAttribute: melting point

Report melting point for Cc1c(C)[n+](OCc2ccccc2)cn1Cc1cccc(F)c1.[Br-] please. 124 to 126 °C

Also need Cc1c(C)[n+](Cc2cccc(C(F)(F)F)c2)cn1Cc1ccccc1.[Cl-] , thanks. 120 to 122 °C

How about this molecule: Cc1c(C)[n+](Cc2cccc(F)c2)cn1Cc1ccccc1.[Cl-] 190 to 192 °C

Also need COc1cccc(CO[n+]2cn(Cc3cccc(C(F)(F)F)c3)c(-c3ccccc3)c2-c2ccccc2)c1.[Br-] , thanks. 132 to 134 °C

What would you report for FC(F)(F)c1cccc(Cn2c[n+](OCc3ccccc3)c(-c3ccccc3)c2-c2ccccc2)c1.[Br-] ? 107 to 110 °C

Try Cc1c(C)[n+](OCc2ccccc2)cn1Cc1ccccc1C(F)(F)F.[Br-] next. 123 to 125 °C

Would you mind doing FC(F)(F)c1cccc(C[n+]2cn(Cc3ccccc3)c(-c3ccccc3)c2-c2ccccc2)c1.[Br-] as well? 216 to 217 °C

Note, next up: Cc1c(C)[n+](Cc2ccccc2)cn1Cc1cccc(F)c1 (as salt: phosphate) [1e[PF6]] 110 to 112 °C

* * *

methodNotes: Cytotoxicity MTT assay (0.1–1000 µM), CC50
Format: cell-based, Human
experimentalContext: human, A549 cells, read-out: CC50 Cancer Cell Lines A549
Provide the recorded log10(CC50 at 48 h) for the entries that follow.
// stored as log10 of CC50 at 48 h expressed in µM

Requested read-out: log10(CC50 at 48 h). Entry: Cc1c(C)[n+](OCc2ccccc2)cn1Cc1ccc(C(F)(F)F)cc1.[Br-] 0.71

Please do the same for Cc1c(C)[n+](Cc2cccc(C(F)(F)F)c2)cn1Cc1ccccc1.[Cl-] as well. 1.01

Proceed to Cc1c(C)[n+](Cc2cccc(OC(F)(F)F)c2)cn1Cc1ccccc1.[Cl-] 0.20

Now the compound Cc1c(C)[n+](OCc2ccccc2)cn1Cc1cccc(OC(F)(F)F)c1.[Br-] 0.74

Now consider Cc1c(C)[n+](OCc2ccccc2)cn1Cc1cccc(F)c1.[Br-] . 0.88

How about Cc1c(C)[n+](Cc2cccc(F)c2)cn1Cc1ccccc1.[Cl-] ? 1.58

# repeat for FC(F)(F)c1cccc(C[n+]2cn(Cc3ccccc3)c(-c3ccccc3)c2-c2ccccc2)c1.[Br-] -1.46

Follow-up entry: Cc1c(C)[n+](OCc2ccccc2)cn1Cc1ccccc1C(F)(F)F.[Br-] 0.87
